experiment: solvent given as SMILES; details: in Cc1ccccc1
Note to self: values exactly at 400 nm are Y. So absorption maximum at or above 400 nm is Y, below is N.

Solved cases below.
CCCCCCCCOc1ccc(C#Cc2ccc(C#Cc3ccc(OCCCCCCCC)c(OCCCCCCCC)c3)c3nc4c5ccccc5c5ccccc5c4nc23)cc1OCCCCCCCC: Y
COC(=O)c1ccc2ccc3cccc4ccc1c2c34: N
N#Cc1cc(C#N)c(-n2c3ccccc3c3ccccc32)cc1-n1c2ccccc2c2ccccc21: N

Task: Test whether the compound "c1ccc2c(c1)Oc1ccccc1N2c1ccc2c(c1)c1ccccc1n1ccnc21" records absorption maximum of 400 nm or higher.
Output: N

Task: Test whether the compound "FC(F)(F)c1ccc(-c2nnc(-c3cc(-c4nnc(-c5ccc(C(F)(F)F)cc5)o4)c(-n4c5ccccc5c5ccccc54)cc3-n3c4ccccc4c4ccccc43)o2)cc1" records absorption maximum of 400 nm or higher.
Output: N

---

assay: solvent given as SMILES; settings: in C1CCCCC1
Note to self: values exactly at 400 nm are rule met. So absorption maximum at or above 400 nm is rule met, below is rule not met.

Solved cases below.
CC1(C)CC(NCc2ccc3ccc4cccc5ccc2c3c45)CC(C)(C)N1[O]: rule not met
Cc1c2ccncc2c(C)c2c1[nH]c1ccccc12: rule not met
C1=C(c2ccccc2)B(c2ccccc2)Nc2c1ccc1ccccc21: rule not met

Task: Test whether the molecule "CCOC(=O)C(C(=O)OCC)C1=[N+]2C(=C(c3ccc(C)cc3)c3ccc(C(C(=O)OCC)C(=O)OCC)n3[B-]2(F)F)C=C1" records absorption maximum of 400 nm or higher.
Output: rule met

Task: Test whether the molecule "COc1ccc(/C=C(\C)c2nc3ccccc3o2)cc1" records absorption maximum of 400 nm or higher.
Output: rule not met

Task: Test whether the molecule "c1ccc(-c2cc3cccc4cc(-c5ccccc5)c5cc(-c6cc7[b-]8c(c6)c(-c6ccccc6)cc6cccc(cc7-c7ccccc7)[n+]86)cc2[b-]5[n+]34)cc1" records absorption maximum of 400 nm or higher.
Output: rule met

Task: Test whether the molecule "CCn1c2ccccc2c2ccc(-c3ccc(OC)cc3)cc21" records absorption maximum of 400 nm or higher.
Output: rule not met

Task: Test whether the molecule CCCCCC(CC)C1(C(CC)CCCCC)c2ccccc2-c2ccc(C#Cc3cc(C#Cc4ccc5c(c4)C(C(CC)CCCCC)(C(CC)CCCCC)c4ccccc4-5)c4ccc5c(C#Cc6ccc7c(c6)C(C(CC)CCCCC)(C(CC)CCCCC)c6ccccc6-7)cc(C#Cc6ccc7c(c6)C(C(CC)CCCCC)(C(CC)CCCCC)c6ccccc6-7)c6ccc3c4c65)cc21 (stereo not drawn) records absorption maximum of 400 nm or higher.
Output: rule met

Task: Test whether the molecule "C[Si](C)(C)C#CC#Cc1ccc2c3cccc4cccc(c5cccc1c52)c43" records absorption maximum of 400 nm or higher.
Output: rule met

Task: Test whether the molecule "COc1ccc2nc3c(nc2c1)c(-c1ccccc1)nn3C" records absorption maximum of 400 nm or higher.
Output: rule met

Task: Test whether the molecule "CC(C)(C)c1ccc2oc(-c3ccc(-c4nc5cc(C(C)(C)C)ccc5o4)s3)nc2c1" records absorption maximum of 400 nm or higher.
Output: rule not met

Task: Test whether the molecule "Cc1ccc(-c2ccccc2)cc1" records absorption maximum of 400 nm or higher.
Output: rule not met

Task: Test whether the molecule "Cc1cc(O)c(C(C)C)cc1/N=C/c1ccc(C(F)(F)F)cc1" records absorption maximum of 400 nm or higher.
Output: rule not met

Task: Test whether the molecule "O=C1Nc2ccccc2/C1=C/C(=O)c1ccc([N+](=O)[O-])cc1" records absorption maximum of 400 nm or higher.
Output: rule not met

Task: Test whether the molecule "COc1ccc(N(c2ccc(OC)cc2)c2ccc3c4cccc5c(N(c6ccc(OC)cc6)c6ccc(OC)cc6)ccc(c6cccc2c63)c54)cc1" records absorption maximum of 400 nm or higher.
Output: rule met

Task: Test whether the molecule "CCC1=C(C)C2=Cc3cccn3[B-](F)(F)[N+]2=C1C" records absorption maximum of 400 nm or higher.
Output: rule met

---

experiment: solvent given as SMILES; settings: in Cc1ccc(C)cc1
Answer each item with its documented absorption maximum.
Give bare numbers, in nm.

Completed entries (count: 3):
CCCCCCCCCCCCCCCCN(CCCCCCCCCCCCCCCC)c1ccc(/C=C/c2cc[n+](Cc3cc(C[n+]4ccc(/C=C/c5ccc(N(CCCCCCCCCCCCCCCC)CCCCCCCCCCCCCCCC)cc5)cc4)cc(C[n+]4ccc(/C=C/c5ccc(N(CCCCCCCCCCCCCCCC)CCCCCCCCCCCCCCCC)cc5)cc4)c3)cc2)cc1: 483
CC(C)(C)c1cc2ccc3cccc4c3c2c(c1)c1nc2c3cc(C(C)(C)C)cc5ccc6cccc(c(=O)n2c41)c6c53: 392
CC(C)(C)c1cc2ccc3cc(C(C)(C)C)cc4c3c2c(c1)c(=O)n1c4nc2c3ccccc3c3ccccc3c21: 368

Task: Note down absorption maximum recorded for "Fc1ccc(-c2nc3n(c2-c2ccncc2)CCS3)cc1"
Output: 332

---

Answer each item with its documented absorption maximum.
assay: solvent given as SMILES; conditions: in CO
Numbers only, in nm.

Completed entries (count: 5):
COc1ccc2cc3c(C)cc(=O)oc3cc2c1: 343
Cc1nc2c(ccc3c2sc(/C=C/c2ccc(N4CCN(C)CC4)cc2)[n+]3C)s1: 505
Oc1ccccc1/C=N/N=C/c1ccccc1O: 355
CNc1ncc2nc(C#N)n(Cc3ccccc3)c2n1: 342
Cc1cc(C(F)(F)F)nc2c1ccc1nc(-c3ccc(Cl)cc3)cn12: 359.6

List the reported absorption maximum of each compound below.
1. CC(C)(C)C1Nc2c(Br)cc(Br)cc2C(=O)N1Cc1ccccc1 (configuration not stated)
2. COc1cc(/C=C2/SC(=O)NC2=O)cc(OC)c1O
3. c1cc2c3c(cccc3c1)NC(c1ccc3ccc4cccc5ccc1c3c45)N2
4. Cc1cc(O)c(C(C)C)cc1/N=C/c1ccc(O)cc1
5. CCCCCCN(CCCCCC)c1ccc(C#Cc2c(F)c(F)c(F)c(F)c2F)cc1
6. c1ccc(Nc2nc(Nc3ccccc3)nc(Nc3ccc4ccc5cccc6ccc3c4c56)n2)cc1

Output:
[368, 359, 340, 341, 357, 340]

---

Answer each item with its documented absorption maximum.
test: solvent given as SMILES; settings: in CCCCCCO
One number for each entry, in nm.

O=C1CCCc2c1[nH]c1cc3c(cc21)OCO3: 343.23

List the reported absorption maximum of each molecule below.
1. COC(=O)C(Cc1ccc2oc(-c3ccc(N(C)C)cc3)nc2c1)NC(=O)OC(C)(C)C (centres undefined)
2. CC1=C(C(C)(C)C)C(C)=[N+]2C1=C(C)c1c(C)c(C(C)(C)C)c(C)n1[B-]2(F)F
3. CCN(CC)c1ccc2c(C)cc(=O)oc2c1

Output:
345.6
526.7
373

---

assay: solvent given as SMILES; details: in CO
Note to self: values exactly at 400 nm are fulfilled. So absorption maximum at or above 400 nm is fulfilled, below is not fulfilled.

Solved cases below.
COC1(OC)C2(Cl)c3nc4cc(-c5cccs5)ccc4nc3C1(Cl)C1C[C@H]3[C@@H](CC12)C1(Cl)c2nc4ccc(-c5cccs5)cc4nc2C3(Cl)C1(OC)OC (some centres undefined): not fulfilled
Brc1cnc(-c2ccc(N(c3ccccc3)c3ccccc3)cc2)s1: not fulfilled
CC(C)(C)c1cc2ccc3cc(C(C)(C)C)cc4c3c2c(c1)c(=O)n1c4nc2c3ccccc3c3ccccc3c21: not fulfilled
CCCCCCCCCCCn1cccc1C1=[N+]2C(=Cc3c(C)cc(C)n3[B-]2(F)F)c2ccccc21: fulfilled
O=C1Nc2ccccc2/C1=C/C(=O)c1ccc([N+](=O)[O-])cc1: not fulfilled
CN(C)c1ccc2c(c1)[Si](C)(C)C1=CC(=[N+](C)C)C=CC1=C2: fulfilled

Task: Test whether the molecule CCC1=C(C)C2=Cc3c4ccccc4c4n3[B-](c3cc[n+](C)cc3)(Oc3ccccc3-4)[N+]2=C1C=Cc1ccc(OC)cc1 (centres undefined) records absorption maximum of 400 nm or higher.
Output: fulfilled

Task: Test whether the molecule "CCC1=C(C)C2=Cc3cc4c(cc3B(O)N2C1=O)OCO4" records absorption maximum of 400 nm or higher.
Output: not fulfilled

Task: Test whether the molecule "COC(=O)c1ccc2ccc3cccc4ccc1c2c34" records absorption maximum of 400 nm or higher.
Output: not fulfilled

---

assay: solvent given as SMILES; details: in C1CCOC1
Note to self: values exactly at 400 nm are true. So absorption maximum at or above 400 nm is true, below is false.

c1cc2c3c(cccc3c1)-c1c-2c2c3ccccc3c3ccc4c5c6c(c7c8ccccc8c8ccc9c%10c%11c(c%12c%13ccccc%13c%13ccc%14c1c1c2c3c4c2c1c1c%14c%13c%12c%10c1c1c9c8c7c5c21)-c1cccc2cccc-%11c12)-c1cccc2cccc-6c12: true
F[B-]1(F)n2c(-c3ccccc3)cc(-c3ccccc3)c2C=C2C(c3ccccc3)=CC(c3ccccc3)=[N+]21: true
COc1ccc2c(c1)sc1[n+]2[B-](F)(F)OC(c2ccc(N(C)C)cc2)=N1: true
CC(C)(C)c1ccc2c(c1)c1cc(C(C)(C)C)cc3c1n2B1c2c-3cccc2-c2cc(C(C)(C)C)cc3c4cc(C(C)(C)C)ccc4n1c23: false
CC(O)CC1=N/C(=C\c2cccc(N(C)C)c2)C(=O)N1C (centres undefined): false
CC(=O)O[B-]1(OC(C)=O)OC(/C=C/c2ccc(C)cc2)=CC(/C=C/c2ccc(C)cc2)=[O+]1: true
COCCOCCOCCOc1ccc(/C=C/C2=[N+]3C(=C(c4cc(OC)cc(OC)c4)c4c(C)c(I)c(/C=C/c5ccc(OCCOCCOCCOC)cc5)n4[B-]3(F)F)C(C)=C2I)cc1: true
C1=C(c2ccc(-c3cccs3)s2)CCC(c2ccccc2)C1 (centres undefined): false
COc1ccc(C2CC(c3ccc(O)cc3)=NN2c2ccc(S(N)(=O)=O)cc2)cc1 (centres undefined): false
CC(C)(C)c1cc2c(c(C(C)(C)C)c1)O[B-]1(c3ccc([B-]45OC(c6ccccc6)=N[N+]4=Cc4cc(C(C)(C)C)cc(C(C)(C)C)c4O5)cc3)OC(c3ccccc3)=N[N+]1=C2 (centres undefined): true

Proceed to the following item.
Task: Test whether the molecule "Cc1ccc(C2=C3C=CC(C#Cc4ccccc4)=[N+]3[B-](F)(F)n3c(C#Cc4ccccc4)ccc32)cc1" records absorption maximum of 400 nm or higher.
Output: true

Reference source: the Deep4Chem optical property database
